Reference source: ChEMBL document CHEMBL3612043

Reported Top1 relaxation inhibition relative to camptothecin (%) values for the following compounds.
# Species: Bos taurus
# procedure_summary: Inhibition of calf thymus Top1-mediated pBR322 DNA relaxation at 25 uM preincubated for 15 mins measured after 30 mins by ethidium bromide staining relative to camptothecin
readout: Top1 relaxation inhibition relative to camptothecin (%)

compound_structure | observed_result
O=C1c2cccnc2C(=O)c2c1c(C(=O)N1CCOCC1)c1ccccn21 | < 40%
O=C1c2cccnc2C(=O)c2c1c(C(=O)NCCCN1CCCCC1)c1ccccn21 | > 120%
CN(C)CCNC(=O)c1c2c(n3ccccc13)C(=O)c1ncccc1C2=O | > 120%
CCN(CC)C(=O)c1c2c(n3ccccc13)C(=O)c1ncccc1C2=O | < 40%
O=C1c2cccnc2C(=O)c2c1c(C(=O)NCCCc1ccccc1)c1ccccn21 | 40%
O=C1c2cccnc2C(=O)c2c1c(C(=O)NCCCN1CCOCC1)c1ccccn21 | > 120%
O=C1c2cccnc2C(=O)c2c1c(C(=O)OCCCN1CCCC1)c1ccccn21 | > 120%
CCN(CC)CCCNC(=O)c1c2c(n3ccccc13)C(=O)c1ncccc1C2=O | > 120%
O=C1c2cccnc2C(=O)c2c1c(C(=O)NCCN1CCCC1)c1ccccn21 | > 120%
CN(C)CCCNC(=O)c1c2c(n3ccccc13)C(=O)c1ncccc1C2=O | > 120%
O=C1c2cccnc2C(=O)c2c1c(C(=O)OCCCN1CCCCC1)c1ccccn21 | > 120%
O=C1c2cccnc2C(=O)c2c1c(C(=O)N1CCCCC1)c1ccccn21 | < 40%
CN1CCN(CCCNC(=O)c2c3c(n4ccccc24)C(=O)c2ncccc2C3=O)CC1 | > 120%
CN1CCN(CCNC(=O)c2c3c(n4ccccc24)C(=O)c2ncccc2C3=O)CC1 | > 120%
CN1CCN(C(=O)c2c3c(n4ccccc24)C(=O)c2ncccc2C3=O)CC1 | 40%
CCOC(=O)c1c2c(n3ccccc13)C(=O)c1ncccc1C2=O | 81%
O=C1c2cccnc2C(=O)c2c1c(C(=O)NCCc1ccccc1)c1ccccn21 | < 40%
O=C1c2cccnc2C(=O)c2c1c(C(=O)NCCN1CCOCC1)c1ccccn21 | > 120%
O=C1c2cccnc2C(=O)c2c1c(C(=O)NCCCN1CCCC1)c1ccccn21 | > 120%
O=C1c2cccnc2C(=O)c2c1c(C(=O)OCCCN1CCOCC1)c1ccccn21 | > 120%

----------
# Tested on: A549
# procedure_summary: cells
# conditions: Homo sapiens, A549, 48 h
# Description: Cytotoxicity against human A549 cells after 48 hrs by MTT assay
pIC50: −log10 of the molar value.

compound_structure | pIC50
O=C1c2cccnc2C(=O)c2c1c(C(=O)NCCCN1CCCCC1)c1ccccn21 | 5.48
O=C1c2cccnc2C(=O)c2c1c(C(=O)OCCc1ccccn1)c1ccccn21 | 5.11
CN1CCN(C(=O)c2c3c(n4ccccc24)C(=O)c2ncccc2C3=O)CC1 | 4.52
O=C1c2cccnc2C(=O)c2c1c(C(=O)OCCN1CCCCC1)c1ccccn21 | 6.28
O=C1c2cccnc2C(=O)c2c1c(C(=O)N1CCOCC1)c1ccccn21 | 4.11
CC[C@@]1(O)C(=O)OCc2c1cc1n(c2=O)Cc2cc3ccccc3nc2-1 | 5.80
O=C1c2cccnc2C(=O)c2c1c(C(=O)NCCc1ccccc1)c1ccccn21 | 4.72
O=C1c2cccnc2C(=O)c2c1c(C(=O)OCCCN1CCCCC1)c1ccccn21 | 6.00
O=C1c2cccnc2C(=O)c2c1c(C(=O)N1CCCCC1)c1ccccn21 | 4.12
CCOC(=O)c1c2c(n3ccccc13)C(=O)c1ncccc1C2=O | 5.85

----------
# Species: Bos taurus
# procedure_summary: Inhibition of calf thymus Top1-mediated pBR322 DNA relaxation at 25 uM preincubated for 15 mins measured after 30 mins by ethidium bromide staining relative to camptothecin
Reported Top1 relaxation inhibition relative to camptothecin (%) values for the following compounds.
readout: Top1 relaxation inhibition relative to camptothecin (%)

compound_structure | relation | observed_result
O=C1c2cccnc2C(=O)c2c1c(C(=O)OCCc1ccccn1)c1ccccn21 | = | 81
CC[C@@]1(O)C(=O)OCc2c1cc1n(c2=O)Cc2cc3ccccc3nc2-1 | = | 81
O=C1c2cccnc2C(=O)c2c1c(C(=O)OCCN1CCOCC1)c1ccccn21 | > | 120
O=C1c2cccnc2C(=O)c2c1c(C(=O)OCCN1CCCCC1)c1ccccn21 | > | 120
O=C1c2cccnc2C(=O)c2c1c(C(=O)NCCn1ccnc1)c1ccccn21 | > | 120

----------
# System: A549
# procedure_summary: cells
# conditions: Homo sapiens, A549, 48 h
Reported log10 IC50 values for the following compounds.
readout: log10 IC50 (log10 of the value in nM)

compound_structure | system_under_test | observed_result
O=C1c2cccnc2C(=O)c2c1c(C(=O)NCCn1ccnc1)c1ccccn21 | A549 | 3.36
CCN(CC)C(=O)c1c2c(n3ccccc13)C(=O)c1ncccc1C2=O | A549 | 4.81
O=C1c2cccnc2C(=O)c2c1c(C(=O)NCCCN1CCCC1)c1ccccn21 | A549 | 3.08
CN(C)CCCNC(=O)c1c2c(n3ccccc13)C(=O)c1ncccc1C2=O | A549 | 2.57
O=C1c2cccnc2C(=O)c2c1c(C(=O)NCCCc1ccccc1)c1ccccn21 | A549 | 4.18
CN1CCN(CCCNC(=O)c2c3c(n4ccccc24)C(=O)c2ncccc2C3=O)CC1 | A549 | 3.74
O=C1c2cccnc2C(=O)c2c1c(C(=O)NCCCN1CCOCC1)c1ccccn21 | A549 | 3.62
CN(C)CCNC(=O)c1c2c(n3ccccc13)C(=O)c1ncccc1C2=O | A549 | 2.79
O=C1c2cccnc2C(=O)c2c1c(C(=O)NCCN1CCCC1)c1ccccn21 | A549 | 2.69
CCN(CC)CCCNC(=O)c1c2c(n3ccccc13)C(=O)c1ncccc1C2=O | A549 | 3.00
O=C1c2cccnc2C(=O)c2c1c(C(=O)NCCN1CCOCC1)c1ccccn21 | A549 | 2.95
O=C1c2cccnc2C(=O)c2c1c(C(=O)OCCCN1CCCC1)c1ccccn21 | A549 | 2.15
CN1CCN(CCNC(=O)c2c3c(n4ccccc24)C(=O)c2ncccc2C3=O)CC1 | A549 | 2.64
O=C1c2cccnc2C(=O)c2c1c(C(=O)OCCCN1CCOCC1)c1ccccn21 | A549 | 3.28

----------
# system_under_test: DNA topoisomerase 1 (Homo sapiens)
# procedure_summary: Inhibition of Top1 (unknown origin)-mediated unwinding of relaxed pBR322 DNA preincubated for 10 mins measured after 30 mins by UV transilluminator analysis
Activity calls are given as the source filed them. No cut-off for these calls is given here.
Outcomes: 1 (active), 0 (inactive)

compound_structure | qualitative_label
CCN(CC)CCCNC(=O)c1c2c(n3ccccc13)C(=O)c1ncccc1C2=O | 1
O=C1c2cccnc2C(=O)c2c1c(C(=O)OCCc1ccccn1)c1ccccn21 | 0
CN1CCN(CCNC(=O)c2c3c(n4ccccc24)C(=O)c2ncccc2C3=O)CC1 | 1
O=C1c2cccnc2C(=O)c2c1c(C(=O)NCCCN1CCCC1)c1ccccn21 | 1
O=C1c2cccnc2C(=O)c2c1c(C(=O)NCCCN1CCCCC1)c1ccccn21 | 1
O=C1c2cccnc2C(=O)c2c1c(C(=O)OCCCN1CCOCC1)c1ccccn21 | 1
O=C1c2cccnc2C(=O)c2c1c(C(=O)NCCN1CCOCC1)c1ccccn21 | 1
CCOC(=O)c1c2c(n3ccccc13)C(=O)c1ncccc1C2=O | 0
CN(C)CCNC(=O)c1c2c(n3ccccc13)C(=O)c1ncccc1C2=O | 1
O=C1c2cccnc2C(=O)c2c1c(C(=O)OCCCN1CCCCC1)c1ccccn21 | 1
CN(C)CCCNC(=O)c1c2c(n3ccccc13)C(=O)c1ncccc1C2=O | 1
O=C1c2cccnc2C(=O)c2c1c(C(=O)NCCCN1CCOCC1)c1ccccn21 | 1
O=C1c2cccnc2C(=O)c2c1c(C(=O)OCCN1CCCCC1)c1ccccn21 | 1
O=C1c2cccnc2C(=O)c2c1c(C(=O)NCCn1ccnc1)c1ccccn21 | 0
CN1CCN(CCCNC(=O)c2c3c(n4ccccc24)C(=O)c2ncccc2C3=O)CC1 | 1
O=C1c2cccnc2C(=O)c2c1c(C(=O)OCCN1CCOCC1)c1ccccn21 | 0
O=C1c2cccnc2C(=O)c2c1c(C(=O)OCCCN1CCCC1)c1ccccn21 | 1
O=C1c2cccnc2C(=O)c2c1c(C(=O)NCCN1CCCC1)c1ccccn21 | 1
